Tested on: rat peritoneal mast cells
Assay: Inhibition of histamine release from rat mast cells
Format: cell-based
Details: Rattus norvegicus, Mast cell; cells and drug preincubated for 5 minutes before adding antigen; read-out: I50 of antigen-induced secretion of histamine
readout_kind: IC50 (µM)
Numeric answer only, unit µM assumed.

# IC50 lookup, item O=c1ccc(=O)c2ccccc2[nH]1 [1H-benz(f)azepine-2,5-dione, 1H-Benz(f)azepine-2,5-dione]
5

---

Target: binding of IgE to mast cells (cellular receptor) (Rattus norvegicus, UniProt P12371)
Construct: endogenous in cells
Sequence (P12371 24-245): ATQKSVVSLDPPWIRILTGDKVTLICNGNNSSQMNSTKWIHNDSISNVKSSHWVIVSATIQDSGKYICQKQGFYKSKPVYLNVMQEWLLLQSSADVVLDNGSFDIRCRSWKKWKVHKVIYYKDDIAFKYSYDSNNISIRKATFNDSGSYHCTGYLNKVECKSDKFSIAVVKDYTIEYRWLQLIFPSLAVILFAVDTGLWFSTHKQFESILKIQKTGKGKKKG
Sequence (P13386 whole entry partner): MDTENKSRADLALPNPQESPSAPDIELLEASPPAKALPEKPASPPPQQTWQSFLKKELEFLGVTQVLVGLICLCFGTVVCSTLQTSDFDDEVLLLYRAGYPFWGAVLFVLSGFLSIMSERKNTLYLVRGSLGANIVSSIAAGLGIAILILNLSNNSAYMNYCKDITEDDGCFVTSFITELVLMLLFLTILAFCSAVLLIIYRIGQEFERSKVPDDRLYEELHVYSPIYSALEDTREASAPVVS
Sequence (P20411 19-86 partner): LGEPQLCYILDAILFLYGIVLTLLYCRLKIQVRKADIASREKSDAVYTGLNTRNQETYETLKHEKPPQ
Assay: Binding of IgE to mast cells (125I-labelled rat IgE, mixed peritoneal cells)
Conditions: 3 nM IgE, 3×10^5 mast cells, 2 hrs, 37° C.; read-out: concentration at which 50% inhibition of IgE binding was observed (I50)
Excerpt: The test used to determine this activity was the method of S. M. Coutts et al. (Journal of Pharm. Sci., 68:353 (1979)). Briefly described, the method is as follows: IgE, isolated from the ascitic fluid of a transplantable rat IgE immunocytoma, was labeled with iodine-125 under mild conditions employing the Bolton-Hunter reagent. […]
readout_kind: IC50 (µM)
Express your answer in µM, writing the number without its unit.

# get_value(readout='IC50', item= O=c1ccc(=O)c2ccccc2[nH]1 [1H-benz(f)azepine-2,5-dione, 1H-Benz(f)azepine-2,5-dione] )
12
